This section presents compounds with their documented T/C values.
# System: P388 leukemia ip, CD2F1 mice, survival T/C
# experiment summary: NCI In Vivo Anticancer Drug Screen. Data for tumor model P388 Leukemia (intraperitoneal) in CD2F1 (CDF1) mice
# experimental context: endpoint: median survival time; dose: 100.0 mg/kg/injection; schedule: Q04DX002 (ip); vehicle: saline; higher = longer survival
Toxic doses and inconclusive results are not listed.
value kind: T/C

>>> df
                                    compound    reported_value
 0  CC1(c2ccccc2)C(=O)c2ccccc2N1O (stereo unspecified)  100 % of control
 1  CCN(CC)CCOC(=O)Cc1cccc2c(=O)cc(-c3ccccc3)oc12  107 % of control
 2                   COc1ccc(Cl)[n+]([O-])n1  106 % of control
 3                       CN(C=O)c1ccc(Cl)cc1  100 % of control
 4    O=C1C(CO)=C[C@H](O)[C@@]2(CO)O[C@@H]12  121 % of control
 5                     CC/C(=N/N(C)C)C(=O)OC   95 % of control
 6  C[C@@H]1C[C@H](C)S(=O)[C@H](C)S1 (stereo partly specified)  101 % of control
 7                O=C1CSC(=S)N1/N=C/c1ccccc1   98 % of control
 8  Cc1cc(C2C(=O)c3ccccc3C2=O)cc(C(C)(C)C)c1O  115 % of control
 9           CC(C)NCc1ccccc1Sc1ccccc1CNC(C)C  103 % of control
10  COc1cc2c(cc1OC)C(O)C1CCCNC1C2 (stereo unspecified)  102 % of control
